# System: MCF7 breast
# protocolSummary: NCI-60 one-dose screen, 48 h
# studyConditions: 10 µM
This is part of a sample that, as a whole, favours compounds with a hit. Of some 83,000 tested, about 20% had one in any assay. Calls of active or inactive are those of the source. How the source made its calls: active means growth percent below 10; inactive means the rest.
Outcomes: TRUE (active), FALSE (inactive)

{"molecule": "COc1ccc(OC)c(-c2cc(-c3c[nH]c4ccccc34)nc(N)c2C#N)c1", "labelValue": "TRUE"}
{"molecule": "COc1ccc(C(=O)Nc2sc3c(c2C#N)CCC(=O)C3)cc1C(F)(F)F", "labelValue": "TRUE"}
{"molecule": "Cc1ccn2c(C(=O)c3ccccc3)cc(-c3cc(-c4ccc(N(C)C)cc4)c(C#N)c(N)n3)c2c1", "labelValue": "FALSE"}
{"molecule": "Cc1ccc(-c2cc(C(=O)N=Nc3c(O)[nH]c4ccccc34)c3ccccc3n2)cc1", "labelValue": "TRUE"}
{"molecule": "O=c1[nH]c2ccccc2cc1CSc1ccc(Nc2nccc(-c3ccc4c(c3)OCO4)n2)cc1", "labelValue": "FALSE"}
{"molecule": "COc1cccc(-c2ccnc(/N=C(\\N)Nc3ccc(S(=O)(=O)Nc4nc(C)cc(C)n4)cc3)n2)c1", "labelValue": "FALSE"}
{"molecule": "CCCCCCCCCCCCCCCCCCCC(=O)NCCc1c[nH]c2ccc(OC(=O)CCCC(=O)OCCOOCCOOCCOOCCOOCCOOCCOOCCOOCCOOCCOOCCOOCCOOCCOC)cc12", "labelValue": "FALSE"}
{"molecule": "O=C1Nc2cc(-c3ccc(NC(=O)c4cccs4)cc3)ccc2/C1=C/c1ccc[nH]1", "labelValue": "TRUE"}
{"molecule": "CCOc1ccc(/C=N/NC(=O)Cn2nc(Cc3ccccc3)c3onc(C)c3c2=O)cc1", "labelValue": "FALSE"}
{"molecule": "COc1ccc(C(=O)/C=C/c2ccc(Cl)c(C(F)(F)F)c2)cc1S(N)(=O)=O", "labelValue": "TRUE"}
{"molecule": "COc1ccc([C@H]2C(C(=O)c3ccc(Cl)cc3)C3(N[C@@H]2c2ccccc2)C(=O)Nc2ccc(Cl)cc23)cc1 (stereo not given in full)", "labelValue": "TRUE"}
{"molecule": "O=C(Cn1nc(-c2ccccc2)ccc1=O)NN1C(=O)c2ccccc2C1=O", "labelValue": "FALSE"}
{"molecule": "Cc1cc(C)cc(Oc2cccc(-c3c(C)nnn3C3CCN(CCN(C)C)CC3)n2)c1", "labelValue": "TRUE"}
{"molecule": "COC(=O)CC1CC1C1Cc2c(nc(N(C)S(C)(=O)=O)nc2C(C)C)-c2ccc(F)cc21 (stereo not given)", "labelValue": "FALSE"}
{"molecule": "C=C(C)[C@@H]1CC[C@]2(COP(=O)(OCC)OCC)CC[C@]3(C)[C@H](CC[C@@H]4[C@@](C)(CCCN)[C@H](C(=C)C)CC[C@]43C)[C@@H]12", "labelValue": "TRUE"}
{"molecule": "COc1ccc(C(=O)/C=C/c2cc(C(F)(F)F)cc(C(F)(F)F)c2)cc1S(N)(=O)=O", "labelValue": "TRUE"}
{"molecule": "CCOC(=O)C1=C(N)N(c2ccc(C)cc2)C2=C(C(=O)CC(C)(C)C2)C1c1ccccc1OC (stereo not given)", "labelValue": "FALSE"}
{"molecule": "N#Cc1ccc(-c2nn(-c3ccc(C(=O)O)cc3)cc2CNc2cc(Cl)cc(C(F)(F)F)c2)cc1", "labelValue": "TRUE"}
{"molecule": "CCOC(=O)N/C(=C1/OCCN1C)[P+](c1ccccc1)(c1ccccc1)c1ccccc1", "labelValue": "FALSE"}
{"molecule": "CC(C)NC(=O)c1cc(-c2ccc(NC(=O)Nc3ccc(N4CCN(C)CC4)c(C(F)(F)F)c3)cc2)nc2cccnc12", "labelValue": "TRUE"}
{"molecule": "CCOC(=O)C1NN(c2ccc(S(N)(=O)=O)cc2)c2nc3nc(-c4cccs4)cc(-c4cccs4)c3c(=O)n21 (stereo not given)", "labelValue": "FALSE"}
{"molecule": "OCc1[nH]nc2cc(Nc3ncc4ccc(Br)c(OC5CCC(O)CC5)c4n3)ccc12 (stereo not given)", "labelValue": "TRUE"}
{"molecule": "COc1cc2oc(-c3cccc(C(=O)Nc4ccc(Cl)cc4)c3)cc(=O)c2c(OCCNC(=O)CNC(=O)OC(C)(C)C)c1OC", "labelValue": "FALSE"}
{"molecule": "O=C1NC(=NC23CC4CC(CC(C4)C2)C3)N/C1=C\\c1ccc2ncccc2n1", "labelValue": "TRUE"}
{"molecule": "O=C(Nc1cccc(-c2cn(-c3ccc4oc(=O)ccc4c3)nn2)c1)Nc1cc(C(F)(F)F)cc(C(F)(F)F)c1", "labelValue": "FALSE"}
{"molecule": "O=C(CSc1nnc(-c2c[nH]c3ccccc23)n1-c1ccccc1)Nc1ccc(C(=O)/C=C/c2ccc(Br)cc2)cc1", "labelValue": "FALSE"}
{"molecule": "O=C(Cn1cc(CSc2nnc3oc4ccccc4n23)nn1)Nc1cccc(Cl)c1", "labelValue": "FALSE"}
{"molecule": "O=C(Nc1ccc(I)cc1F)c1cc(-c2ccc(F)cc2F)ccc1O", "labelValue": "TRUE"}
{"molecule": "Cc1ccc2nc(-c3ccc(-c4nnc(SCC(=O)Nc5ccc(Br)cc5)o4)cc3)[nH]c2c1", "labelValue": "FALSE"}
{"molecule": "CCCCSc1nc(Nc2ccc(/C(C)=N/NC(N)=S)cc2)c(C#N)c(-c2ccc(OC)cc2)n1", "labelValue": "FALSE"}
{"molecule": "COc1cc(NC(=O)c2cc(-c3ccc(F)cc3F)ccc2O)cc(OC)c1OC", "labelValue": "FALSE"}
{"molecule": "CCCCOc1ccc(Nc2nc3ccccc3nc2Nc2ccc(OCCCC)cc2)cc1", "labelValue": "FALSE"}
{"molecule": "O=c1oc2ccccc2cc1-c1csc(N=Nc2c(O)[nH]c3ccc(Br)cc23)n1", "labelValue": "FALSE"}
{"molecule": "CC(=O)Nc1ccc(-n2cnc3cc(-c4ccc(O)cc4)ccc32)cc1C", "labelValue": "FALSE"}
{"molecule": "O=C(CSc1nnc(-c2c[nH]c3ccccc23)n1-c1ccccc1)Nc1ccc(C(=O)/C=C/c2ccc(Cl)cc2)cc1", "labelValue": "TRUE"}
